- Target System: E1E2 of HCV isolate AMS.1b.20877857 (genotype 1b) (Hepatitis C virus genotype 1b)
- Assay Details: cell-based or functional assay
Outcome Measure: IC50, HCVpp neutralization (mg/L)
Express your answer in mg/L, writing the number without its unit.

Guide cases for IC50, HCVpp neutralization, answers given:
Q: Quick one: IC50, HCVpp neutralization for AT13-021 (antibody, V domains shown) VH: QVQLVQSGAEVKKPGSSVKVSCKASGGTFNTHAFSWVRQAPGEGLEWMGGISPMSGTPNYAQKFQGRLTITADESTSTGYMELRSLTSEDTAVYYCARELIGYCTGGNCYSFGDFWGQGTLITVSS VL: EIVMTQSPATLSVSPGERATLSCRASQSVSSHLAWYQHKPGQAPRLLISGASTRAVGVPARFSGSGSGTEFTLTISSLQSEDFAVYYCHQYNTWPRGFGQGTKVDFKR ?
Ans: 0.09

Q: Any idea what its IC50, HCVpp neutralization is? The binder is AT12-007 (antibody, V domains shown) VH: QVQLEQSGAEVKKPGASVKVSCKVSGYTLTELSMHWVRQAPGKGLEWMGSFDPADGERLYAQKFQGRVIMSEDTSTDTAYMELSSLRSEDAAVYYCATAPRMTMFGVIMALDSWGQGTLVTVSS VL: DIQMTQSPSTLSASLGDRVTITCRASQNINKYLAWYQQKPGKAPKLLIYKASNLQSGVPSRFSGSGSGTDFILTISSLQPDDFATYYCQQYTTYSAWTFGQGTNVDIKR
Ans: 0.04

Q: Form field: reported IC50, HCVpp neutralization of AT12-009 (antibody, V domains shown) VH: SSVRVSCKASGDTFKTHAISWVRQAPGQGLEWVGGTVRQAPGDGLELLGGFVPILAPANDAQKFQGRVTITADGSTGPVYMDLSTLTSEDTAMYYCVTSLSEPIPRSCRGGRCYSGPFDAFGVWGQGTMVTVSS VL: ETMLTQSPVTLSVSPGERATLSCRASQSIGTNLAWYQQKPGQAPRLLIHGASTRATGVPVSFSGSGSGTEFTLTISSLQSEDFAVYYCQQYNNWPLTFGGGTKVDFKR
Ans: 0.001

Q: # get_value(readout='IC50, HCVpp neutralization', item= AT12-011 (antibody, V domains shown) VH: QVQLVQSGAEVKKPGSSVKVSCKASGGTFSGYGITWVRQAPGQGLEWMGTIIPVSATETYAQRLQGRVTISADEHSTTSYMEVSSLKSEDTALYYCARHDYFWGTPLDIWGQGTMVIVSS VL: EIVLTQSPDFQSVTPKEKVTITCRASQSIGSNLHWYQQKPGQSPKLLIKYASQSFSGVPSRFSGSGSGTDFTLTINSLEAEDAATYFCHQSYNLPRTFGGGTKVEIKR )
Ans: 4.31

We now examine a further binder.
Q: Item AT12-010 (antibody, V domains shown) VH: QLQLVQSGAEVKKPGSSVKVSCKASGGTFTSYAINWVRQVPGQGLEWMGEISPVFGTTHYAQKFQGRLKITADESADTAYMELSSLRSDDTAVYYCGRDRAPRLCSGGRCHSPPDHWGQGTLVTVSS VL: DIQMTQSPSSVSASVGDRVTITCRASQGFGNWLAWYQQKPGRAPKLLIFGASTLQNGVPSRFSGSASGTDFTLTITSLQPEDFATYYCLQTNTFPYTFGQGTKVEIKR has what recorded IC50, HCVpp neutralization?
Ans: 0.47

Provenance of the data: patent US20170313764A1
